Origin of the recorded values: the supplement of paper PMC10567573

Method summary: protein stability index of a GFP-peptide fusion (GPS, HEK-293T) (PSI 1-6); higher = more stable;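 further: 24-mer peptide tiles fused after GFP, lentivirally expressed, FACS-sorted into six equal bins by GFP/DsRed ratio, decoded by Illumina sequencing, PSI is the read-weighted mean bin number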
Conditions used: treatment: DMSO; c terminus: a fixed tail appended

Ordered residues | protein stability index
LKSQPLPLRSSLPISLQATPATPA [TFE3] | 3.92
FRENGRNCKRERDARVKRKLRGPE [TBX6] | 3.92
PEPVYFHCAAVTPAGCMYIHGGVV [KLHDC10] | 2.53
RPLQVNTADHRIYSYVVSRPQPRG [FAF2] | 3.27
YPWDENHCKEKRKTSLLDQLTNTS [NETO1] | 3.94
QHHEALSLFCYEDQEAVCLICAIS [TRIM39] | 2.26
QGELADQDVDPVHNLIEQVSLGLG [FBXO33] | 4.55
LPYQHFSAHFTSGPLVPRLAGMAN [TBX5] | 2.7
LQGLSLIVTWFMLLYAQGLLAIQF [SLC19A2] | 3.16
INNGDFEAYTKICDPGLTAFEPEA [CAMK2D] | 4.08
QKEDVKPYQVNGVNPAYPESRYTS [ETS1] | 4.53
LLGTSGLKRRFSRLENRYEALAKQ [DAPK3] | 3.04
IMTVKEDQFSALGLDPCLLEDELD [SLC6A17] | 4.45
NYMNAAMVHINRALKLIIRLFLVE [RTN3] | 2.24
GAMLGQTTSEEAVGGATPDQTTSE [HDAC6] | 4.91
ILVLTRPVTRNERHSYQVYRQPIP [NET1] | 2.33
MLGLALGGLVVSAASLAGCLGALC [TSPAN10] | 3.15
EALVNRLWKRMDKLEAEKRILQEK [CCDC6] | 2.93
PPELNYGATGECQNFLDPGYPLPK [ZNF449] | 4.61
RELNDRLAVYIDKVRSLETENSAL [LMNB1] | 3.33
WKERDEYITKVSEEVTRLGAQVKE [TRIM15] | 4.69
YRQKKRAEQEALTGECKELEKKNE [ATF4] | 5.47
YIQSRADTMQNIESTIVELGSIFQ [STX5] | 2.33
INSIIHNPRAPVIIYKQTKGGVQN [CEP70] | 2.86
TSSSTSGSSDKVYAHQMVRTDSRE [MLH1] | 5.08
FLTAPLLEFLLALYFLFADAMQLN [CMTM3] | 2.94
GRLAMDEIFQKPFQTLMFLVRDWS [ATL3] | 2.25
DRSDYFAAWGARVFSFGKHYWELD [TRIM43] | 2.14
PHSDQRLRPQRTKQYVLLSILLCL [TMEM106C] | 2.34
AKGASLFTCDLQHTETGEEVLRMC [VPS39] | 3.69
GGQRSTPLIIAARNGHAKVVRLLL [FEM1B] | 2.16
QDFAKDLLKTLYNSIKNEKLEWAI [PSD2] | 2.32
FVWYTPPTFMIAVFLPIVVLIFKS [STEAP1] | 3.33
TLAQFPETLLGDPEKRTQYFDPLR [KCNA4] | 3.5
VVLCFSIANPNSLNHVKSMWYPEI [RHOBTB1] | 4.05
VASYILASHNGISYKDLDVIFGVE [TENT5D] | 2.93
AEMLGSVVGNWQYFFPVIFSKASD [MAGEA6] | 2.37
LPPDMTVVPGDHLLEPEVADGGGA [KCNA3] | 5.35
AVGYQPEYSKFCRMSYQDPAQLSC [NFE2L1] | 2.63
TCKASHITSSVFPSASLGKASSRK [FBXO34] | 3.62
LQHAVELKPLCGCHSFAAAADGPT [SMAD6] | 3.16
